For each of the compounds below, state its pIC50.
target: IRAK4 (Homo sapiens (Human))
Counter-ions that a name gives are not always drawn.
Answers are plain numbers, as −log10 of the molar value.

- Cn1cc(NC(=O)c2ccc3ccc(N4CC5CCC4CN5)nn23)c(C#N)n1 (stereo not shown) [Example 31, trifluoroacetate]: 7.60
- Cn1cc(NC(=O)c2ccc3ccc(N[C@@H]4CCCC(F)(F)[C@@H]4N)nn23)c(C(F)(F)F)n1 [Example 7, trifluoroacetate]: 6.72
- Cn1cc(NC(=O)c2ccc3ccc(N4CC5CCC4CN5)nn23)c(C(F)F)n1 (stereo not shown) [Example 17, trifluoroacetate]: 8.40

// for each compound in input: emit pIC50
1. N[C@@H]1[C@H](Nc2ccc3ccc(C(=O)Nc4ccccc4C(F)F)n3n2)CCCC1(F)F [Example 118, trifluoroacetate]
2. N#Cc1ccccc1NC(=O)c1ccc2ccc(N3CCC[C@@H](N)C3)nn12 [Example 107]
3. N[C@@H]1[C@H](Nc2ccc3ccc(C(=O)Nc4cscc4Br)n3n2)CCCC1(F)F [Example 88, trifluoroacetate]

RESULT:
[5.13, 7.59, 5.21]

// for each compound in input: emit pIC50
1. N#Cc1sccc1NC(=O)c1ccc2ccc(N[C@@H]3CCCC[C@@H]3N)nn12 [Example 75, trifluoroacetate]
2. O=C(Nc1cscc1Cl)c1ccc2ccc(N3C[C@H]4CC[C@@H]3CN4)nn12 (single isomer, unassigned) [Example 84, trifluoroacetate]
3. O=C(Nc1ccccc1C(F)(F)F)c1ccc2ccc(N3CCCNCC3)nn12 [Example 111]
4. N[C@@H]1[C@H](Nc2ccc3ccc(C(=O)Nc4cscc4Cl)n3n2)CCCC1(F)F [Example 87, acetate]
5. N#Cc1sccc1NC(=O)c1ccc2ccc(N3C[C@@H]4CC[C@H]3CN4)nn12 (single isomer, unassigned) [Example 80, formate]
6. Cn1cc(NC(=O)c2ccc3ccc(N4C[C@H]5CC[C@@H]4CN5)nn23)c(Br)n1 (single isomer, unassigned) [Example 36, trifluoroacetate]
7. Cn1cc(NC(=O)c2ccc3ccc(N4CC5CCC(C4)N5)nn23)c(C(F)(F)F)n1 [Example 47, trifluoroacetate]

RESULT:
1: 8.70; 2: 6.90; 3: 5.85; 4: 5.66; 5: 6.99; 6: 7.66; 7: 8.05

###

Where a name gives a salt, the structure may show the parent alone.
A set of molecules tested on IRAK4 (Homo sapiens (Human)), with measured IC50:
Numbers only, in nM.

* Cn1cc(NC(=O)c2ccc3ccc(N4C[C@H]5CN[C@H](C5)C4)nn23)c(C(F)(F)F)n1 (single isomer, unassigned) [Example 4] | 131
* O=C(Nc1cscc1Cl)c1ccc2ccc(N3CCCNCC3)nn12 [Example 82, trifluoroacetate] | 308
* N#Cc1ccccc1NC(=O)c1ccc2ccc(N3CCNCC3)nn12 [Example 101, trifluoroacetate] | 574
* Cn1cc(NC(=O)c2ccc3ccc(N[C@@H]4CCCNC4)nn23)c(C(F)(F)F)n1 [Example 6, trifluoroacetate] | 1
* Cn1cc(NC(=O)c2ccc3ccc(N4CCC[C@@H](N)C4)nn23)c(C(F)F)n1 [Example 13, trifluoroacetate] | 0.5
* Cn1cc(NC(=O)c2ccc3ccc(N[C@@H]4CCCC[C@@H]4N)nn23)c(C(F)F)n1 [Example 19, trifluoroacetate] | 1

// for each molecule in input: emit IC50
1. N[C@H]1CCCC[C@H]1Nc1ccc2ccc(C(=O)Nc3ccccc3Br)n2n1 [Example 58, trifluoroacetate]
2. Cn1cc(NC(=O)c2ccc3ccc(N[C@@H]4CCCC[C@@H]4N)nn23)c(Br)n1 [Example 22, trifluoroacetate]
3. O=C(Nc1ccsc1Br)c1ccc2ccc(N3CCCNCC3)nn12 [Example 76, trifluoroacetate]

RESULT:
[11, 2, 1320]

// for each molecule in input: emit IC50
1. Cn1cc(NC(=O)c2ccc3ccc(NC4CCCCNC4)nn23)c(C(F)F)n1 (centres unmarked) [Example 24, trifluoroacetate]
2. Cn1cc(NC(=O)c2ccc3ccc(N[C@@H]4CCCCNC4)nn23)c(C(F)F)n1 (single isomer, unassigned) [Example 41, trifluoroacetate]

RESULT:
2
0.2

###

molecular target: IRAK4 (Homo sapiens (Human), UniProt Q9NWZ3)
Sequence (Q9NWZ3 whole entry): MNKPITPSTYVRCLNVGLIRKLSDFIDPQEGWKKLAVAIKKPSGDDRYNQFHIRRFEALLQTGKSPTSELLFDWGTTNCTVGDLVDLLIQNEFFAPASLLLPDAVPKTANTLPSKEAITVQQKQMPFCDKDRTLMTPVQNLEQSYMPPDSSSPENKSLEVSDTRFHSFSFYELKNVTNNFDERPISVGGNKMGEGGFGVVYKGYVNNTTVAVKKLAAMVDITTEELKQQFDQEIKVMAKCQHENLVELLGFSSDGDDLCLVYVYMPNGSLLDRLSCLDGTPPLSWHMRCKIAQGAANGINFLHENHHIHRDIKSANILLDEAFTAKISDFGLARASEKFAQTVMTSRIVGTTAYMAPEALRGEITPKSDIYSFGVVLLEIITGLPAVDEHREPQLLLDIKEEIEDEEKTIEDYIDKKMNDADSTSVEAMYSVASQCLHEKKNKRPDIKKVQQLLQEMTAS
pIC50: −log10 of the molar value. Structures can show the parent of a compound that is named as a salt.
Returns one of Yes or No; Yes when pIC50 is >= 8.

Recorded results for 6 compounds are shown here.
- Cn1cc(NC(=O)c2ccc3ccc(N4C[C@@H]5CC[C@H]4CN5)nn23)c(Cl)n1 (single isomer, unassigned) [Example 33, trifluoroacetate]: No
- Cn1cc(NC(=O)c2ccc3ccc(N4C[C@@H]5CC[C@H]4CN5)nn23)c(C(F)F)n1 (single isomer, unassigned) [Example 37, trifluoroacetate]: Yes
- Cn1cc(NC(=O)c2ccc3ccc(N4CCCNCC4)nn23)c(C(F)(F)F)n1 [Example 10, trifluoroacetate]: No
- Cn1cc(NC(=O)c2ccc3ccc(N4C[C@@H]5CN[C@@H](C5)C4)nn23)c(C(F)F)n1 (single isomer, unassigned): Yes
- Cn1cc(NC(=O)c2ccc3ccc(N[C@@H]4CCCC[C@@H]4O)nn23)c(Cl)n1 [Example 53, trifluoroacetate]: No
- N[C@H]1CCCC[C@H]1Nc1ccc2ccc(C(=O)Nc3ccsc3Cl)n2n1 [Example 71, trifluoroacetate]: Yes

QUERY: Please check the record O=C(Nc1ccccc1Br)c1ccc2ccc(N3CCCNCC3)nn12 [Example 57, trifluoroacetate] and state if its pIC50 is at or above 8.
RESULT: No

QUERY: And N#Cc1ccccc1NC(=O)c1ccc2ccc(N[C@@H]3CCCCNC3)nn12 (single isomer, unassigned) [Example 108, trifluoroacetate] ?
RESULT: No

###

Structures can show the parent of a compound that is named as a salt.
A set of compounds tested on IRAK4 (Homo sapiens (Human), UniProt Q9NWZ3), with measured pIC50:
Numbers only, as −log10 of the molar value.

// for each compound in input: emit pIC50
1. CC(C)n1cc(NC(=O)c2ccc3ccc(N[C@@H]4CCCC[C@@H]4O)nn23)c(C(F)F)n1 [Example 55, trifluoroacetate]
2. O=C(Nc1ccccc1Cl)c1ccc2ccc(N3CC4CCC3CN4)nn12 (stereo not drawn) [Example 64, trifluoroacetate]
3. Cn1cc(NC(=O)c2ccc3ccc(N4CCCNCC4)nn23)c(C(F)F)n1 [Example 15, trifluoroacetate]

RESULT:
7.28
6.21
8.70

// for each compound in input: emit pIC50
1. O=C(Nc1ccsc1Cl)c1ccc2ccc(N3CCCNCC3)nn12 [Example 66, trifluoroacetate]
2. Cn1cc(NC(=O)c2ccc3ccc(N[C@@H]4CCCC[C@@H]4N)nn23)c(C(F)(F)F)n1
3. N[C@H]1CCCC[C@H]1Nc1ccc2ccc(C(=O)Nc3ccsc3Br)n2n1 [Example 77, trifluoroacetate]
4. Cn1cc(NC(=O)c2ccc3ccc(N[C@@H]4CCCC(F)(F)[C@@H]4N)nn23)c(Cl)n1 [Example 48, acetate]
5. Cn1cc(NC(=O)c2ccc3ccc(N[C@@H]4CCCC[C@@H]4N)nn23)c(Cl)n1 [Example 25, trifluoroacetate]
6. N#Cc1ccccc1NC(=O)c1ccc2ccc(N[C@H]3CCCCNC3)nn12 (single isomer, unassigned) [Example 109, trifluoroacetate]

RESULT:
1: 6.20; 2: 8.30; 3: 7.96; 4: 6.86; 5: 9.00; 6: 8.15

###

Structures can show the parent of a compound that is named as a salt.
A set of molecules tested on IRAK4 (Homo sapiens (Human)), with measured pIC50:
Give bare numbers, as −log10 of the molar value.

// for each molecule in input: emit pIC50
1. Cn1cc(NC(=O)c2ccc3ccc(N[C@@H]4CCCC[C@@H]4O)nn23)c(C(F)(F)F)n1 [Example 5, trifluoroacetate]
2. O=C(Nc1cscc1Cl)c1ccc2ccc(N3C[C@@H]4CC[C@H]3CN4)nn12 (single isomer, unassigned) [Example 83, trifluoroacetate]
3. N[C@H]1CCCC[C@H]1Nc1ccc2ccc(C(=O)Nc3ccsc3C(F)(F)F)n2n1

RESULT:
6.91
6.73
6.66

// for each molecule in input: emit pIC50
1. N[C@H]1CCCC[C@H]1Nc1ccc2ccc(C(=O)Nc3ccccc3Cl)n2n1 [Example 65, trifluoroacetate]
2. N#Cc1sccc1NC(=O)c1ccc2ccc(N3CCCNCC3)nn12 [Example 67, trifluoroacetate]
3. Cn1cc(NC(=O)c2ccc3ccc(N4CCCNCC4)nn23)c(C#N)n1 [Example 30, trifluoroacetate]
4. Cn1cc(NC(=O)c2ccc3ccc(N4CCNCC5(CC5)C4)nn23)c(C(F)F)n1 [Example 18, trifluoroacetate]
5. N[C@@H]1[C@H](Nc2ccc3ccc(C(=O)Nc4ccccc4Cl)n3n2)CCCC1(F)F [Example 92, trifluoroacetate]
6. N[C@H]1CCCC[C@H]1Nc1ccc2ccc(C(=O)Nc3ccccc3C(F)F)n2n1 [Example 112, trifluoroacetate]
7. N[C@H]1CCCC[C@H]1Nc1ccc2ccc(C(=O)Nc3cscc3C(F)F)n2n1 [Example 72, trifluoroacetate]
8. N[C@@H]1[C@H](Nc2ccc3ccc(C(=O)Nc4ccccc4Br)n3n2)CCCC1(F)F [Example 94, trifluoroacetate]

RESULT:
1. 8.22
2. 6.71
3. 7.57
4. 8.70
5. 5.69
6. 6.33
7. 7.62
8. 5.25

// for each molecule in input: emit pIC50
1. O=C(Nc1ccsc1Cl)c1ccc2ccc(N3CC4CCC3CN4)nn12 (stereo not drawn) [Example 70, trifluoroacetate]
2. N#Cc1cscc1NC(=O)c1ccc2ccc(N[C@@H]3CCCC[C@@H]3N)nn12 [Example 73, trifluoroacetate]
3. N#Cc1cscc1NC(=O)c1ccc2ccc(N3CCCNCC3)nn12 [Example 68, trifluoroacetate]
4. Cn1cc(NC(=O)c2ccc3ccc(N4CCCNCC4)nn23)c(Br)n1 [Example 21, trifluoroacetate]

RESULT:
6.36
8.52
6.72
7.49
